System: L1210 leukemia ip in BDF1 mice, survival T/C
assay.comment: NCI In Vivo Anticancer Drug Screen. Data for tumor model L1210 Leukemia (intraperitoneal) in B6D2F1 (BDF1) mice
conditions.used: endpoint: mean survival time; dose: 100.0 mg/kg/injection; schedule: Q04DX003 (ip); vehicle: saline with Tween-80; higher = longer survival
Inconclusive results and toxic doses are left out.
result.type: T/C

Here are 6 compounds together with their reported answers.
> print(dat)
                           structure.string            result
1            Cc1cc(NC(=O)c2ccccc2)c(Cl)cc1N   98 % of control
2             C=CCNC(=O)Oc1cccc(NC(=O)OC)c1  107 % of control
3  c1ccc([Si]2(c3ccccc3)c3ccccc3-c3ccccc32)cc1   94 % of control
4                     CCCCN(CCCC)CCC(=O)OCC   94 % of control
5  F[Si](c1cccc2ccccc12)(c1cccc2ccccc12)c1cccc2ccccc12   92 % of control
6                   CCOC(=O)Nc1ccc(Cl)cc1Cl   97 % of control

T/C reported for this compound CCN(C(=O)Nc1ccc(Cl)cc1)c1ccccc1 : 96 % of control

* * *

Reported T/C values for the following compounds.
Test system: L1210 leukemia ip in BDF1 mice, survival T/C
assay.comment: NCI In Vivo Anticancer Drug Screen. Data for tumor model L1210 Leukemia (intraperitoneal) in B6D2F1 (BDF1) mice
conditions.used: endpoint: mean survival time; dose: 25.0 mg/kg/injection; schedule: Q04DX003 (ip); vehicle: saline with Tween-80; higher = longer survival
Inconclusive results and toxic doses are left out.

> print(dat)
                                   compound                                       tgt           result
1  O=C(c1ccccc1)C1(c2ccccc2)OP(c2ccccc2)(c2ccccc2)(c2ccccc2)CC1c1ccccc1 (configuration not stated)  L1210 leukemia ip in BDF1 mice, survival T/C  92 % of control
2            COc1cc(CNC(=O)/C(C)=C/Cl)ccc1O  L1210 leukemia ip in BDF1 mice, survival T/C  96 % of control

T/C reported for this compound CCc1cccc(CC)c1NC(=O)Nc1cc(Cl)ccc1C : 94 % of control

T/C reported for this compound C[n+]1ccc(/C=C/c2c[nH]c3ccccc23)cc1 : 97 % of control

T/C reported for this compound CCCCNCCC(SSSC(CCNCCCC)c1ccc(Cl)cc1)c1ccc(Cl)cc1 (configuration not stated) : 91 % of control

T/C reported for this compound O=C(O)c1ccc(CBr)cc1CBr : 102 % of control

T/C reported for this compound FC(F)(F)c1ccc2c(c1)N(CCCN(CCCl)CCCl)c1ccccc1S2 : 113 % of control

* * *

Reported T/C values for the following compounds.
Tested on: L1210 leukemia ip in BDF1 mice, survival T/C
assay.comment: NCI In Vivo Anticancer Drug Screen. Data for tumor model L1210 Leukemia (intraperitoneal) in B6D2F1 (BDF1) mice
conditions.used: endpoint: mean survival time; dose: 100.0 mg/kg/injection; schedule: Q01DX009 (ip); vehicle: saline; higher = longer survival
Toxic doses and inconclusive results are not listed.

Here are 7 compounds together with their reported answers.
> print(dat)
                                   compound            result
1                    O=S(=O)(O)c1ccc(Br)cc1  116 % of control
2             C1CN(P(N2CCOCC2)N2CCOCC2)CCO1  104 % of control
3   O=C(Nc1cc([N+](=O)[O-])ccc1O)c1ccccc1Cl  101 % of control
4  Cc1ccccc1S(=O)(=O)CC(Cl)c1ccccc1 (stereo not drawn)   93 % of control
5           COc1nccnc1NS(=O)(=O)c1ccc(N)cc1   92 % of control
6       CCCCCOC(=O)CCCc1ccc(N(CCCl)CCCl)cc1   86 % of control
7  CCOC(=O)CP(=O)(OC)c1ccccc1 (stereo not drawn)   97 % of control

Now look at this one.
T/C reported for this compound COC(=O)c1ccc(Cl)cc1[N+](=O)[O-] : 101 % of control

* * *

Test system: L1210 leukemia ip in BDF1 mice, survival T/C
assay.comment: NCI In Vivo Anticancer Drug Screen. Data for tumor model L1210 Leukemia (intraperitoneal) in B6D2F1 (BDF1) mice
conditions.used: endpoint: mean survival time; dose: 200.0 mg/kg/injection; schedule: Q04DX003 (ip); vehicle: saline with Tween-80; higher = longer survival
Inconclusive results and toxic doses are left out.
Reported T/C values for the following compounds.

Here are 2 compounds together with their reported answers.
> print(dat)
                               compound           result
1        C=CC[N+]1=C(C)C(C)(C)c2ccccc21  96 % of control
2  Nc1ccc(S(=O)(=O)NC(=O)NCc2ccccc2)cc1  98 % of control

T/C reported for this compound CCCCCCCCOc1ccccn1 : 105 % of control

T/C reported for this compound CC(C(=O)O)N1C(=O)C2C3C=CC(C3)C2C1=O (configuration not stated) : 102 % of control

T/C reported for this compound CC(C)NC(=O)C1C2CCC(CC2)C1C(=O)NC(C)C (configuration not stated) : 86 % of control

T/C reported for this compound Cc1cc(Br)cnc1Cl : 94 % of control

T/C reported for this compound CCCCCCCCCCCCCCCCOc1ccc(S(=O)(=O)Nc2cc(C(=O)OC)cc(C(=O)OC)c2)cc1N : 90 % of control

T/C reported for this compound Cc1ccc(C[n+]2cccc(NC(=O)COc3ccc(Cl)c(Cl)c3)c2)cc1 : 93 % of control

T/C reported for this compound Cc1ccc(S(=O)(=O)NC(Cc2ccccc2)C(=O)CCl)cc1 (configuration not stated) : 92 % of control

T/C reported for this compound CCc1cccc(CC)c1NC(=O)Nc1cc(Cl)ccc1C : 91 % of control

T/C reported for this compound CN(C)c1ccc(/C=N/NC(N)=S)nc1 : 113 % of control

T/C reported for this compound CC(C)(C)CC(C)(C)c1ccc(OCCOc2ccc(C(=O)Nc3ccc(NC(=O)c4ccc5ccccc5c4O)cc3)cc2)cc1 : 90 % of control

* * *

Reported T/C values for the following compounds.
Tested on: L1210 leukemia ip in BDF1 mice, survival T/C
assay.comment: NCI In Vivo Anticancer Drug Screen. Data for tumor model L1210 Leukemia (intraperitoneal) in B6D2F1 (BDF1) mice
conditions.used: endpoint: mean survival time; dose: 400.0 mg/kg/injection; schedule: Q04DX003 (ip); vehicle: other; higher = longer survival
Toxic doses and inconclusive results are not listed.

> print(dat)
                              compound            result
1  O=C1NN=C2CCCCC12 (stereo not given)  102 % of control

T/C reported for this compound O=S(=O)(CCl)Nc1ccccn1 : 100 % of control

T/C reported for this compound Cc1cc(C(C)(C)CC(C)(C)C)cc(O)c1O : 91 % of control

T/C reported for this compound Cc1ccc(S(=O)(=O)OCC2CC3CCC2C3)cc1 (stereo not given) : 98 % of control

* * *

Test system: L1210 leukemia ip in BDF1 mice, survival T/C
assay.comment: NCI In Vivo Anticancer Drug Screen. Data for tumor model L1210 Leukemia (intraperitoneal) in B6D2F1 (BDF1) mice
conditions.used: endpoint: mean survival time; dose: 100.0 mg/kg/injection; schedule: Q04DX003 (ip); vehicle: saline with Tween-80; higher = longer survival
Inconclusive results and toxic doses are left out.
result.type: T/C

Here are 4 molecules together with their reported answers.
> print(dat)
                                   molecule            result
1  COc1ccc(CC2C(=O)OC(=O)C2Cc2ccc(OC)c(OC)c2)cc1OC (stereo not given)   91 % of control
2      O=S(=O)(NC(=S)Nc1ccc(Cl)cc1)c1ccccc1  110 % of control
3  O=C(O)C1=C/C(=C\C=[N+]2c3cc(O)c(OC4OC(CO)C(O)C(O)C4O)cc3CC2C(=O)[O-])CC(C(=O)O)N1 (stereo not given)   97 % of control
4  CC(C)CN(CC(C)C)c1ccc([N+](=O)[O-])cc1[N+](=O)[O-]   94 % of control

Now look at this one.
Short answer on L1210 leukemia ip in BDF1 mice, survival T/C for c1ccc2cc3c(cc2c1)Nc1cc2ccccc2cc1N3 , T/C: 97 % of control

* * *

System: L1210 leukemia ip in BDF1 mice, survival T/C
assay.comment: NCI In Vivo Anticancer Drug Screen. Data for tumor model L1210 Leukemia (intraperitoneal) in B6D2F1 (BDF1) mice
conditions.used: endpoint: mean survival time; dose: 12.5 mg/kg/injection; schedule: Q04DX003 (ip); vehicle: saline with Tween-80; higher = longer survival
Toxic doses and inconclusive results are not listed.
Reported T/C values for the following compounds.

Here are 5 compounds together with their reported answers.
> print(dat)
                           structure.string            result
1        C=CC[n+]1ccccc1C(c1ccccc1)c1ccccc1   95 % of control
2                 CCOC(O)(C(F)(F)F)C(F)(F)F   95 % of control
3  FC(F)(F)c1ccc2c(c1)N(CCCN(CCCl)CCCl)c1ccccc1S2  102 % of control
4   CCCCCCCCCCCCOC(=O)C[n+]1cccc(C(=O)NC)c1  101 % of control
5                     c1ccc(N=Nc2ccncc2)cc1   92 % of control

T/C reported for this compound O=C1O/C(=C/Br)C=C1Br : 92 % of control

T/C reported for this compound O=c1[nH]c2ccccc2nc1CBr : 94 % of control

T/C reported for this compound C[n+]1ccc(/C=C/c2c[nH]c3ccccc23)cc1 : 104 % of control

Cited source: PubChem BioAssay AID248
